experimental_target: HLA-B*58:01
assay_explanation: IEDB peptide-MHC binding, purified MHC/direct/fluorescence; filed as Kd, often an IC50 or EC50 that approximates it; bounds were set here for any values at or beyond the usual limits of such assays
assay_conditions: source organism: Amur virus
measured_attribute: Kd (µM)
Answer in µM, number only, no unit symbol.

Kd in this record for `VSLTECPTF` : 0.0348

* * *

experimental_target: HLA-A*11:01
assay_explanation: IEDB peptide-MHC binding, purified MHC/competitive/radioactivity; filed as Kd, often an IC50 or EC50 that approximates it; bounds were set here for any values at or beyond the usual limits of such assays
assay_conditions: source organism: Dengue virus 1 Singapore/S275/1990
measured_attribute: Kd
Put your answer as a value accompanied by its unit after it.

Reported Kd of `SSMVNGVVK` : 73.4 nM
